In this section we review reported IC50 values for a set of compounds.
test: Antiproliferative activity against rat LT12 cells after 48 hrs by XTT assay; type: functional, cell-based; conditions: LT12, 48 h
Answer with a number only, understood to be in nM.

# annotated cases, reported IC50 shown
COc1ccc(N=C2c3cccc(Cl)c3C(=O)c3c(Cl)cccc32)cc1O
310
COc1ccc(N=C2c3ccccc3C(=O)c3ccccc32)cc1O
180
CC[C@]1(O)C[C@@H]2CN(CCc3c([nH]c4ccccc34)[C@@](C(=O)OC)(c3cc4c(cc3OC)N(C)[C@H]3[C@@](O)(C(N)=O)[C@H](O)[C@]5(CC)C=CCN6CC[C@]43[C@@H]65)C2)C1 [VINDESINE]
1

Kindly note the recorded IC50 for COC(=O)Nc1nc2cc(C(=O)c3cccs3)ccc2[nH]1 [NOCODAZOLE] , which is 40
